study system: M4RA (MLL4SET-RBBP5AS-ABM-ASH2LSPRY) (Homo sapiens)
measure: pKi
Worth noting: pKi values are minus log10 of concentrations stated in mol/L.

Which pKi reading was recorded for the compound Nc1ncnc2c1ncn2[C@@H]1O[C@H](CSCC[C@H](N)C(=O)O)[C@@H](O)[C@H]1O [AdoHcy, S-adenosylhomocysteine] ? 4.95

====

study system: M4RA (MLL4SET-RBBP5AS-ABM-ASH2LSPRY) (Homo sapiens, UniProt O14686)
Sequence (O14686 5397-5513 limits assumed): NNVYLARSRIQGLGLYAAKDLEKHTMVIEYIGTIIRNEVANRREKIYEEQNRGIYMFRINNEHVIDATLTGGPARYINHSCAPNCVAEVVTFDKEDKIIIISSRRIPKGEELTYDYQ
Sequence (Q15291 330-360 partner limits assumed): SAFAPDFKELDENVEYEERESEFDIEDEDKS
Sequence (Q9UBL3 380-599 partner limits assumed): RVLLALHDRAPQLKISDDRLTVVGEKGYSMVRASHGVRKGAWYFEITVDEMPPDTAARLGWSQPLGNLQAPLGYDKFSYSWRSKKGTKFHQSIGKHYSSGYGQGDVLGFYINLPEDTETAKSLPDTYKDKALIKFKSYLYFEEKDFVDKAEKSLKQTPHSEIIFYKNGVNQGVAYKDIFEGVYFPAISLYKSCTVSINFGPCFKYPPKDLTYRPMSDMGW
measure: Kd (µM)
Expressed in µM, but write only the number.

Lab note: need Kd for C[S+](CC[C@H](N)C(=O)[O-])C[C@H]1O[C@@H](n2cnc3c(N)ncnc32)[C@H](O)[C@@H]1O (stereo partly shown) on M4RA (MLL4SET-RBBP5AS-ABM-ASH2LSPRY) (Homo sapiens, UniProt O14686), anyone have it? 10.3
